Assay info: qHTS assay for small molecules that induce genotoxicity in human embryonic kidney cells expressing luciferase-tagged ATAD5 - cell viability (AID 651634); note: nearly all actives have a fitted effect of over 25% in size
Particulars: HEK293T ATAD5-luc cells viability, CellTiter-Fluor, 15.5 h; series mostly up to 83.3 µM
Excerpt: National Center for Advancing Translational Sciences [NCATS] NIH Chemical Genomics Center [NCGC] U.S. Environmental Protection Agency [EPA] National Institutes of Environmental Health Sciences [NIEHS] National Toxicology Program [NTP] U.S. Food and Drug Administration [FDA] Enhanced Level of Genome Instability Gene 1 (ELG1; human ATAD5) protein levels increase in response to various types of DNA damage. […]
Records with an inconclusive call do not appear. Activity calls are given as the source filed them. Calls come from the whole dose curve.
Parameter call: string, one of active, inactive

Examples with answers:
CCCCC(CC)CN1CN(CC(CC)CCCC)CC(C)(N)C1 (centres undefined)	inactive
O=S(=O)(O)c1ccc(Nc2nc(Nc3ccc(/C=C/c4ccc(Nc5nc(Nc6ccc(S(=O)(=O)O)cc6)nc(N(CCO)CCO)n5)cc4S(=O)(=O)O)c(S(=O)(=O)O)c3)nc(N(CCO)CCO)n2)cc1	inactive
CC(C)CCOC(=O)/C=C/c1ccccc1	inactive
CCC(C)[O-].CCC(C)[O-].CCOC(=O)/C=C(/C)[O-].[Al+3]	inactive
CCCCCCCCCCCC(=O)OCC(C)OC(=O)CCCCC(=O)O (centres undefined)	inactive

Tell me the assay call for C=C(C)C(=O)OCCCCCCCCCC please.
inactive

Tell me the assay call for C#C[C@]1(OC(C)=O)CC[C@H]2[C@@H]3CCC4=C/C(=N/O)CC[C@@H]4[C@H]3CC[C@@]21CC please.
active

Tell me the assay call for C#C[C@]1(OC(C)=O)CC[C@H]2[C@@H]3CCC4=C[C@@H](OC(C)=O)CC[C@@H]4[C@H]3CC[C@@]21C please.
inactive

Tell me the assay call for O=[N+]([O-])c1cccc(C(F)(F)F)c1 please.
inactive
